Test system: Candida albicans
Measurement Notes: Antifungal activity was determined against Candida albicans
Type: functional
MIC values, listed per item
Lab book: enter the figure in µg/mL, no units written.

Before answering, review these 2 worked examples.
{"Compound": "Cn1cc(NC(=O)c2cc(NC(=O)c3cc(NC(=O)c4nsc(NCCCCN)c4Cl)cn3C)cn2C)cc1C(=O)NCCN1CCOCC1", "Test Target": "Candida albicans", "Quantitative Readout": 8}
{"Compound": "CN(C)CCCCNC(=O)c1cc(NC(=O)c2cc(NC(=O)c3cc(NC(=O)c4nsc(NCCCN)c4Cl)cn3C)cn2C)cn1C", "Test Target": "Candida albicans", "Quantitative Readout": 0.25}

Problem: Tell me reported MIC for Cn1cc(NC(=O)c2cc(NC(=O)c3cc(NC(=O)c4nsc(NCCCNC5CCCCC5)c4Cl)cn3C)cn2C)cc1C(=O)NCCCNC1CCCCC1 , tested with Candida albicans.
Result: 16

Problem: Tell me reported MIC for Cn1cc(NC(=O)c2cc(NC(=O)c3cc(NC(=O)c4nsc(NCCCCN)c4Cl)cn3C)cn2C)cc1C(=O)NCCCNC1CCCCC1 , tested with Candida albicans.
Result: 32

Problem: Tell me reported MIC for Cn1cc(NC(=O)c2cc(NC(=O)c3cc(NC(=O)c4nsc(NCCCNC5CCCCC5)c4Cl)cn3C)cn2C)cc1C(=O)NCCCCN , tested with Candida albicans.
Result: 4

Problem: Tell me reported MIC for Cn1cc(NC(=O)c2cc(NC(=O)c3cc(NC(=O)c4nsc(NCCCNC5CCCCC5)c4Cl)cn3C)cn2C)cc1C(=O)NCCN1CCOCC1 , tested with Candida albicans.
Result: 16

Problem: Tell me reported MIC for CN(C)CCCNC(=O)c1cc(NC(=O)c2cc(NC(=O)c3cc(NC(=O)c4nsc(NCCCCN)c4Cl)cn3C)cn2C)cn1C , tested with Candida albicans.
Result: 8

Problem: Tell me reported MIC for CN(C)CCCNC(=O)c1cc(NC(=O)c2cc(NC(=O)c3cc(NC(=O)c4nsc(NCCCN)c4Cl)cn3C)cn2C)cn1C , tested with Candida albicans.
Result: 8

---

Tested on: Enterococcus faecalis
Measurement Notes: Antimicrobial activity was determined against vancomycin-resistant Enterococcus faecalis (VREF 51559)
Format: functional
Result Type: MIC

{"Compound": "Cn1cc(NC(=O)c2cc(NC(=O)c3cc(NC(=O)c4nsc(NCCCNC5CCCCC5)c4Cl)cn3C)cn2C)cc1C(=O)NCCCNC1CCCCC1", "MIC": "2 µg/mL"}
{"Compound": "Cn1cc(NC(=O)c2cc(NC(=O)c3cc(NC(=O)c4nsc(NCCc5ccccn5)c4Cl)cn3C)cn2C)cc1C(=O)NCCN1CCOCC1", "MIC": "4 µg/mL"}
{"Compound": "Cn1cc(NC(=O)c2cc(NC(=O)c3cc(NC(=O)c4nsc(NCCN5CCOCC5)c4Cl)cn3C)cn2C)cc1C(=O)NCCc1ccncc1", "MIC": "0.25 µg/mL"}
{"Compound": "Cn1cc(NC(=O)c2cc(NC(=O)c3cc(NC(=O)c4nsc(NCCCNC5CCCCC5)c4Cl)cn3C)cn2C)cc1C(=O)NCCCCN", "MIC": "16 µg/mL"}
{"Compound": "Cn1cc(NC(=O)c2cc(NC(=O)c3cc(NC(=O)c4nsc(NCCCO)c4Cl)cn3C)cn2C)cc1C(=O)NCCN1CCOCC1", "MIC": "0.5 µg/mL"}

Problem: Form field: reported MIC of Cn1cc(NC(=O)c2cc(NC(=O)c3cc(NC(=O)c4nsc(NCCN5CCOCC5)c4Cl)cn3C)cn2C)cc1C(=O)NCCN1CCOCC1
Result: 2 µg/mL

---

Test system: Enterococcus faecalis
Measurement Notes: Antimicrobial activity was determined against vancomycin-resistant Enterococcus faecalis (VREF 51559)
Type: functional
MIC values, listed per item
Lab book: enter the figure in µg/mL, no units written.

Before answering, review these 6 worked examples.
{"Compound": "Cn1cc(NC(=O)c2cc(NC(=O)c3cc(NC(=O)c4nsc(NCCN5CCOCC5)c4Cl)cn3C)cn2C)cc1C(=O)NCC1CC1", "Quantitative Readout": 1}
{"Compound": "CN(C)CCCNC(=O)c1cc(NC(=O)c2cc(NC(=O)c3cc(NC(=O)c4nsc(NCCCN)c4Cl)cn3C)cn2C)cn1C", "Quantitative Readout": 2}
{"Compound": "Cn1cc(NC(=O)c2cc(NC(=O)c3cc(NC(=O)c4nsc(NCCc5ccncc5)c4Cl)cn3C)cn2C)cc1C(=O)NCCN1CCOCC1", "Quantitative Readout": 2}
{"Compound": "CN(C)CCCNC(=O)c1cc(NC(=O)c2cc(NC(=O)c3cc(NC(=O)c4nsc(NCCCCN)c4Cl)cn3C)cn2C)cn1C", "Quantitative Readout": 1}
{"Compound": "Cn1cc(NC(=O)c2cc(NC(=O)c3cc(NC(=O)c4nsc(NCCCNC5CCCCC5)c4Cl)cn3C)cn2C)cc1C(=O)NCCN1CCOCC1", "Quantitative Readout": 16}
{"Compound": "CN(C)CCCNC(=O)c1cc(NC(=O)c2cc(NC(=O)c3cc(NC(=O)c4nsc(NCCCCCCCN)c4Cl)cn3C)cn2C)cn1C", "Quantitative Readout": 1}

Problem: Tell me reported MIC for Cn1cc(NC(=O)c2cc(NC(=O)c3cc(NC(=O)c4nsc(N5CCCCC5)c4Cl)cn3C)cn2C)cc1C(=O)NCCN1CCOCC1 , tested with Enterococcus faecalis.
Result: 1

---

MIC values, listed per item
Test system: Streptococcus pneumoniae
Measurement Notes: Antimicrobial activity was determined against penicillin-susceptible Streptococcus pneumoniae (PSSP 49619)
Type: functional
Lab book: enter the figure in µg/mL, no units written.

{"Compound": "Cn1cc(NC(=O)c2cc(NC(=O)c3cc(NC(=O)c4nsc(NCCCCN)c4Cl)cn3C)cn2C)cc1C(=O)NCCCNC1CCCCC1", "Quantitative Readout": 1}

Problem: Tell me reported MIC for CN(C)CCCNC(=O)c1cc(NC(=O)c2cc(NC(=O)c3cc(NC(=O)c4nsc(NCCCN)c4Cl)cn3C)cn2C)cn1C , tested with Streptococcus pneumoniae.
Result: 0.5

Problem: Tell me reported MIC for Cn1cc(NC(=O)c2cc(NC(=O)c3cc(NC(=O)c4nsc(NCCc5ccccn5)c4Cl)cn3C)cn2C)cc1C(=O)NCCN1CCOCC1 , tested with Streptococcus pneumoniae.
Result: 0.125

Problem: Tell me reported MIC for Cn1cc(NC(=O)c2cc(NC(=O)c3cc(NC(=O)c4nsc(NCCN5CCOCC5)c4Cl)cn3C)cn2C)cc1C(=O)NCCc1ccncc1 , tested with Streptococcus pneumoniae.
Result: 0.062

Problem: Tell me reported MIC for CN(C)CCCCNC(=O)c1cc(NC(=O)c2cc(NC(=O)c3cc(NC(=O)c4nsc(NCCCN)c4Cl)cn3C)cn2C)cn1C , tested with Streptococcus pneumoniae.
Result: 0.064

Problem: Tell me reported MIC for Cn1cc(NC(=O)c2cc(NC(=O)c3cc(NC(=O)c4nsc(NCC5CC5)c4Cl)cn3C)cn2C)cc1C(=O)NCCN1CCOCC1 , tested with Streptococcus pneumoniae.
Result: 0.125

Problem: Tell me reported MIC for Cn1cc(NC(=O)c2cc(NC(=O)c3cc(NC(=O)c4nsc(NCCCNC5CCCCC5)c4Cl)cn3C)cn2C)cc1C(=O)NCCCNC1CCCCC1 , tested with Streptococcus pneumoniae.
Result: 2

Problem: Tell me reported MIC for Cn1cc(NC(=O)c2cc(NC(=O)c3cc(NC(=O)c4nsc(NCCCCN)c4Cl)cn3C)cn2C)cc1C(=O)NCCN1CCOCC1 , tested with Streptococcus pneumoniae.
Result: 0.5

Problem: Tell me reported MIC for Cn1cc(NC(=O)c2cc(NC(=O)c3cc(NC(=O)c4nsc(NCCCNC5CCCCC5)c4Cl)cn3C)cn2C)cc1C(=O)NCCCCN , tested with Streptococcus pneumoniae.
Result: 1

Problem: Tell me reported MIC for Cn1cc(NC(=O)c2cc(NC(=O)c3cc(NC(=O)c4nsc(NCCN5CCOCC5)c4Cl)cn3C)cn2C)cc1C(=O)NCC1CC1 , tested with Streptococcus pneumoniae.
Result: 1

Problem: Tell me reported MIC for Cn1cc(NC(=O)c2cc(NC(=O)c3cc(NC(=O)c4nsc(N5CCCCC5)c4Cl)cn3C)cn2C)cc1C(=O)NCCN1CCOCC1 , tested with Streptococcus pneumoniae.
Result: 0.125

Problem: Tell me reported MIC for Cn1cc(NC(=O)c2cc(NC(=O)c3cc(NC(=O)c4nsc(NCCCNC5CCCCC5)c4Cl)cn3C)cn2C)cc1C(=O)NCCN1CCOCC1 , tested with Streptococcus pneumoniae.
Result: 0.062

Problem: Tell me reported MIC for CCOCCCNC(=O)c1cc(NC(=O)c2cc(NC(=O)c3cc(NC(=O)c4nsc(NCCN5CCOCC5)c4Cl)cn3C)cn2C)cn1C , tested with Streptococcus pneumoniae.
Result: 0.5
